# Test system: D54 ERlucT glycosylation luciferase reporter, luminescence, 24 h
# ASSAY NOTES: N-linked glycosylation inhibitors, luciferase reporter, dose response, D54 ERlucT cells, luminescence, cherry-picks (AID 624491);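 also: signal gain reflects blocked N-linked glycosylation of a luciferase reporter; actives raise luciferase signal so AC26 marks activators of the reporter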
Hi there, I'd appreciate the recorded AC26 for every entry that follows.

Return value of AC26 for input COc1cc(F)ccc1-c1csc(C(NC(C)=O)c2ccc(F)c(F)c2)n1 (stereo unspecified) , no commentary.
681 nM

State its AC26 for this compound: COc1ccc(CCn2c(=N)c(S(=O)(=O)c3ccc(C)cc3)cc3c(=O)n4ccccc4nc32)cc1
988 nM

Quickly give me recorded AC26 for CCN(CC)CCCNc1ccc2ncn3c4ccc(O)cc4c(=O)c1c23
92.6 nM

Specify reported AC26 for the compound shown: COCCOC(=O)c1[nH]c2c(c1C)C(=O)CC(c1cccs1)C2 (stereo unspecified)
1380 nM

Determine from records and report AC26 for COc1cc(NC(=O)c2ccc(-c3c(C)noc3C)c3ccoc23)cc(OC)c1OC
3770 nM

Identify measured AC26 associated with Cc1ccc(-c2cc(C(=O)NCC(c3ccccc3)N(C)C)c3ccccc3n2)o1 (stereo unspecified)
11400 nM

Specify measured AC26 for COc1ccc(CCn2c(=N)c(C(=O)NCC3CCCO3)cc3c(=O)n4cccc(C)c4nc32)cc1OC (stereo unspecified) .
652 nM

Given O=C(C=Cc1cccc(O)c1)c1ccccc1O , respond with its AC26.
3290 nM

Report AC26, nothing else, for this compound: NC(=O)CC(NC(=O)Cc1ccc(Br)cc1)c1ccc(NC2CCN(Cc3ccccc3)CC2)c([N+](=O)[O-])c1 (stereo unspecified)
496 nM

Fill in AC26 for record COc1cc2c(cc1OC)CN(c1ccc(-c3ccccc3OC)nn1)CC2
3380 nM

Supply AC26 value. Item: COc1ccc(C(=O)c2ccc(N(C)C)cc2)c2ccccc12
2000 nM

Note AC26 for the compound shown: O=C(NCCCN1CCOCC1)c1cc(-c2ccc(F)cc2)on1
14000 nM

Output AC26 of COc1ccc2c(c1)[C@H]1[C@H](CO2)[C@H](c2ccccc2)[C@]2(C)C(=O)Nc3cc(OC)c(OC)cc3C(=O)N12
13.1 nM

Note down AC26 recorded for Nc1ncnc(Sc2ccc(Cl)cc2)c1[N+](=O)[O-]
13400 nM

Give the measured AC26 for O=C1CCCN1CCCNc1nc(NCc2ccccc2)nc2ccsc12
4240 nM

For the compound Cc1[nH]c(C)c(C(=O)/C=C/c2ccc([N+](=O)[O-])cc2)c1C , give its measured AC26 value.
633 nM

Look up AC26 of Cc1c2cnccc2c(C)c2c1oc1ccccc12 and report it.
2820 nM

Tell me measured AC26 for Cc1cc(C)cc(-n2c3ccc(NC(=O)Cc4cccc5ccccc45)cc3c(=O)n2C)c1 please.
1780 nM

Using the record for N#CC1=C(N)Oc2c(c(=O)sc3ccccc23)C1c1cccnc1 (stereo unspecified) , state its measured AC26.
2860 nM

Dear colleague, please send me the reported AC26 for O=C(c1cccc(N2CCCC2=O)c1)N1CCN(c2cccc(Cl)c2)CC1 when you can.
2600 nM

Give AC26 for the following compound: COc1cccc(N2CCN(C(=O)c3ccc(CS(=O)c4ccc(Cl)cc4)o3)CC2)c1 (stereo unspecified)
234 nM

Supply reported AC26 belonging to this compound: C=CCN1c2ccccc2[C@]23C[C@@H](C(=O)OC)N(C(=O)c4ccc(Br)cc4)C2=NC(C(=O)OC)=C(C(=O)OC)[C@H]13
6060 nM

Output AC26 of COc1cc(C(=O)N/N=C/c2cc([N+](=O)[O-])cs2)cc(OC)c1OC
349 nM

Please indicate AC26 recorded for C=CCn1c(SCc2c(C)noc2C)nc2sc(C)c(C)c2c1=O
891 nM

# return recorded AC26 for entry COc1ccc(-c2cc(C(F)F)n3ncc(C(=O)N4CCc5ccccc54)c3n2)cc1
2500 nM

Supply measured AC26 of COc1ccccc1OCC(=O)NNC(=O)c1ccoc1C in your reply.
722 nM

Look up and state reported AC26 for COc1ccc(NC(=O)C2Cc3c(-c4cccc(NC(C)=O)c4)ccnc3O2)cn1 (stereo unspecified)
2590 nM

Provide measured AC26 value, entry: O=C(Nc1ccc(Cl)cn1)c1cccc(F)c1
6980 nM

Note AC26 for the compound shown: CC(C)CN(C(=O)COC(=O)CCSc1ccc(Cl)cc1)c1c(N)n(Cc2ccccc2)c(=O)[nH]c1=O
4450 nM

Complete the entry with AC26 for COc1ccc(CCn2c(=N)c(C(=O)NCc3ccco3)cc3c(=O)n4ccccc4nc32)cc1
2810 nM

Read the entry CCc1nnc2n1N=C(c1ccc(OC)cc1)CS2 and write its reported AC26.
6840 nM

Give me measured AC26, please, for this compound: NC(=O)CC(NC(=O)Cc1ccc(Br)cc1)c1ccc(NC2CCC2)c([N+](=O)[O-])c1 (stereo unspecified)
2760 nM

Quickly give me recorded AC26 for NC1(C(=O)O)CSSC1
221 nM

Give the measured AC26 for CC(=O)c1c(C)[nH]c(C(=O)Nc2cccc(S(=O)(=O)N3CCCC3)c2)c1C
2610 nM

Provide measured AC26 value, entry: COC(=O)c1ccc(/C=C/C(=O)c2ccc(OC)c(OC)c2)cc1
4100 nM

Retrieve AC26 measured for Cc1cc(-c2nnc3n2N=C(c2ccc(-c4ccccc4)cc2)CS3)n[nH]1 and print it.
2760 nM

State its AC26 for this compound: Cc1ccc2c(c1)[C@H]1[C@H](CO2)[C@H](c2ccccc2)[C@]2(C)C(=O)Nc3ccc(Br)cc3C(=O)N12
1430 nM

Provide AC26 value for the following compound: CCOc1ccc(S(=O)(=O)NCc2ccccn2)cc1NC(=O)c1ccccc1F
593 nM

Please report the measured AC26 for Cc1cc(C)c2c(N)c3ccccc3nc2n1
762 nM

Give recorded AC26. C[C@H](CO)N1C[C@H](C)[C@@H](CN(C)S(=O)(=O)c2ccccc2)Oc2c(NC(=O)Cc3ccccc3)cccc2C1=O
3400 nM

Read the entry Cc1ccc(C(=O)NC(=C(Cl)Cl)S(=O)(=O)c2ccc(Cl)cc2)cc1 and write its reported AC26.
3660 nM

###

# System: D54 ERlucT glycosylation luciferase reporter, luminescence, 24 h
# ASSAY NOTES: N-linked glycosylation inhibitors, luciferase reporter, dose response, D54 ERlucT cells, luminescence, cherry-picks (AID 624491);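 also: signal gain reflects blocked N-linked glycosylation of a luciferase reporter; actives raise luciferase signal so AC26 marks activators of the reporter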
MEASURED QUANTITY: AC26

Given Cc1cc(C)cc(NC2=NC3(CCCCC3)N=C(N)N2)c1 , report its AC26 on D54 ERlucT glycosylation luciferase reporter, luminescence, 24 h.
545 nM

Under D54 ERlucT glycosylation luciferase reporter, luminescence, 24 h: report AC26 of CN(C)c1ccc(/C=C/C(=O)c2ccc(C(C)(C)C)cc2)cc1[N+](=O)[O-] .
5570 nM

Quote AC26 with test system D54 ERlucT glycosylation luciferase reporter, luminescence, 24 h for Cc1c(C(=O)Nc2ccc3oc(-c4cccnc4)nc3c2)oc2ccccc12
8840 nM

State recorded AC26 with D54 ERlucT glycosylation luciferase reporter, luminescence, 24 h, entry CCOc1ccc2nc(NCCNC(=O)Nc3cccc(C)c3)c(C#N)cc2c1 , no comment.
4010 nM

State, for D54 ERlucT glycosylation luciferase reporter, luminescence, 24 h, measured AC26 of the compound listed here: COc1cccc(OCC(O)CN2CCN(CCN3C(=O)c4cccc5cccc(c45)C3=O)CC2)c1 (stereo unspecified)
4250 nM

Consider the compound O=C(CN1C(=O)/C(=C\c2ccc(F)cc2)Oc2ccccc21)N1CCN(c2ccccn2)CC1 tested on D54 ERlucT glycosylation luciferase reporter, luminescence, 24 h; state its AC26.
4740 nM

Provide measured AC26 on D54 ERlucT glycosylation luciferase reporter, luminescence, 24 h for O=C(N/N=C/c1ccc(F)cc1)c1sccc1OCc1ccc(F)cc1 please.
1630 nM

State, for D54 ERlucT glycosylation luciferase reporter, luminescence, 24 h, measured AC26 of the compound listed here: CN1/C(=C/C=C(/C#N)C(N)=O)C(C)(C)c2ccccc21
55.6 nM

Give measured AC26 for COc1cccc(C(=O)Nc2sc3c(c2C#N)CCN(C(C)=O)C3)c1 (D54 ERlucT glycosylation luciferase reporter, luminescence, 24 h).
9.19 nM

Please indicate recorded AC26 of CCCc1cc(C(=O)N/N=C/c2ccc(C)o2)c2ccccc2n1 measured with D54 ERlucT glycosylation luciferase reporter, luminescence, 24 h.
1040 nM

Give D54 ERlucT glycosylation luciferase reporter, luminescence, 24 h AC26 for the following compound: Cc1cc([N+](=O)[O-])ccc1-c1ccc(/C=N/NC(=O)c2ccc(Br)o2)o1
4510 nM

# return AC26 of CCc1ccc2[nH]c3nc(SCC(=O)NNC(=O)c4ccc(C(C)(C)C)cc4)nnc3c2c1 (system: D54 ERlucT glycosylation luciferase reporter, luminescence, 24 h)
4110 nM

Tell me AC26 of O=C(NC(=C(Cl)Cl)S(=O)(=O)c1ccc(Cl)cc1)c1ccccc1 when tested on D54 ERlucT glycosylation luciferase reporter, luminescence, 24 h.
594 nM

Look up and report measured AC26 (D54 ERlucT glycosylation luciferase reporter, luminescence, 24 h) for the following compound: Cc1ccc(N2C(=O)Nc3ccccc3C2(O)C(=O)N2CCN(c3ccccn3)CC2)cc1C (stereo unspecified)
330 nM

Quote D54 ERlucT glycosylation luciferase reporter, luminescence, 24 h AC26 for entry CCc1ccc(Oc2coc3cc(OCC(=O)Nc4cc(C)ccc4C)ccc3c2=O)cc1 .
4860 nM

Jot down AC26 (D54 ERlucT glycosylation luciferase reporter, luminescence, 24 h) of COc1ccccc1CCNCc1ccc(OC)c(OCc2ccccc2)c1 .
994 nM

Check D54 ERlucT glycosylation luciferase reporter, luminescence, 24 h data and give AC26 for Cc1ccc2[nH]c(=O)c3cc(C(=O)NC(C)C)sc3c2c1 .
3990 nM

Enter AC26 (test system D54 ERlucT glycosylation luciferase reporter, luminescence, 24 h) for O=C(c1cn(Cc2ccccc2)nc1-c1ccccc1)N1CCN(c2ccccn2)CC1
999 nM

Provide the reported AC26 (system: D54 ERlucT glycosylation luciferase reporter, luminescence, 24 h) for O=C(/C=C/c1cccc([N+](=O)[O-])c1)c1ccc2c(c1)OCCO2
3330 nM

Give AC26 only, for COc1ccccc1NC(=O)c1cnc(SCC(=O)NCC2CCCO2)n(C)c1=O (stereo unspecified) , using D54 ERlucT glycosylation luciferase reporter, luminescence, 24 h data.
1970 nM

Output reported AC26 of the compound CSCCOC(=O)c1[nH]c2c(c1C)C(=O)CC(c1ccco1)C2 (stereo unspecified) on D54 ERlucT glycosylation luciferase reporter, luminescence, 24 h.
526 nM

Values from PubChem BioAssay AID624491
